System: trypsin (bovine pancreas)
Construct: from tissue; host or cells: bovine pancreas
assay.summary: in vitro
Type: in vitro ADME
measurement.parameters: isolated enzyme trypsin; 100 µM, 12 μM trypsin, 100 mM HEPES pH 7.5, 37 °C, HPLC; trimers lacking C-terminal G-NH2 or Ac-G IAAIEQK counted; read-out: % remaining intact as trimers after 30 min trypsin, apo
Bridges are numbered along the chain shown (N, C = ends). Roman numbers before positions name the chains, in order.
measurement.kind: remaining at 0.5 h

[[record]]
substance = "I: Ac-GIAAIEQKIAANEWKDAAIEQKIAAIEQKIAAIEQKG-NH2 / II: Ac-GIAAIEQKIAANEWKDAAIEQKIAAIEQKIAAIEQKG-NH2 / III: Ac-GIAAIEQKIAANEWKDAAIEQKIAAIEQKIAAIEQKG-NH2 (amide I:15-II:20, I:20-III:15, II:15-III:20) [KH2-20X]"
test_value = "~74%"


* * *

Tested on: trypsin (bovine pancreas)
Construct: from tissue; host or cells: bovine pancreas
assay.summary: in vitro
Assay type: in vitro ADME
measurement.parameters: isolated enzyme trypsin; 100 µM, 12 μM trypsin, 100 mM HEPES pH 7.5, 37 °C, HPLC; trimers lacking C-terminal G-NH2 or Ac-G IAAIEQK counted; read-out: % remaining intact as trimers after 6 h trypsin, apo
Bridges are numbered along the chain shown (N, C = ends). Roman numbers before positions name the chains, in order.
measurement.kind: remaining at 6 h

[[record]]
substance = "I: Ac-GIAAIEQKIAANEWKDAAIEQKIAAIEQKIAAIEQKG-NH2 / II: Ac-GIAAIEQKIAANEWKDAAIEQKIAAIEQKIAAIEQKG-NH2 / III: Ac-GIAAIEQKIAANEWKDAAIEQKIAAIEQKIAAIEQKG-NH2 (amide I:15-II:20, I:20-III:15, II:15-III:20) [KH2-20X]"
measurement_kind = "remaining at 6 h"
test_value = "~45%"


All values here come from paper PMC12636026.
